Biological target: AM2 receptor (1321N1 cells transfected with CALCRL+RAMP3) (Homo sapiens, UniProt O60896+Q16602)
Construct: host or cells: 1321N1 cells
Sequence (Q16602 23-461): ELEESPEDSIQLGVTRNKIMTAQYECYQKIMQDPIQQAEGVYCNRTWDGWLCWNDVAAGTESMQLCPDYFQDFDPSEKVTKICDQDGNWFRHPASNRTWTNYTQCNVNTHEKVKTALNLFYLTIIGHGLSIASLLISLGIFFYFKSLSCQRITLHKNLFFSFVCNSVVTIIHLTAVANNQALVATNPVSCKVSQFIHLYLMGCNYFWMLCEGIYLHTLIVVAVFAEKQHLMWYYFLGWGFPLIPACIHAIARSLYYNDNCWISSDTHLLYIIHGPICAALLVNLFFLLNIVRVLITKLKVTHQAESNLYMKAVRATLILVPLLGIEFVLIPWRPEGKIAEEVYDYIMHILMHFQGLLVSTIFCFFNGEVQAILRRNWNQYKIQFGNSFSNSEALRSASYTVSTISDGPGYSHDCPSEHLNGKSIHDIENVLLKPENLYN
Sequence (O60896 24-148): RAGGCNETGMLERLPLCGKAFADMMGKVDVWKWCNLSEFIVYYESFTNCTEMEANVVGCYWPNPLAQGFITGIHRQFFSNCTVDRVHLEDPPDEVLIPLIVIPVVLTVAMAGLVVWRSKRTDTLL
Experiment: AM2 receptor inhibition, LANCE cAMP agonist-antagonist competition assay
Assay type: cell-based
Conditions: inhibition of AM induced cAMP activation, read-out: AM2 D2 protocol: pIC50 (converted)
MEASUREMENT TYPE: IC50

Identify measured IC50 corresponding to CCC1(C(=O)N(CC(=O)Nc2ccc3c(c2)C[C@@]2(C3)C(=O)Nc3ncccc32)Cc2ccccc2CNC)CCN(C(=O)C(C)(C)C(F)(F)F)CC1
61.7 nM

Identify measured IC50 corresponding to CCC1(C(=O)N(CC(=O)Nc2ccc3c(c2)C[C@@]2(C3)C(=O)Nc3ncccc32)Cc2ccccc2CNC)CCN(C(=O)[C@@H](N)C(C)C)CC1
8.32 nM

Identify measured IC50 corresponding to CCC1(C(=O)N(CC(=O)Nc2ccc3c(c2)C[C@@]2(C3)C(=O)Nc3ncccc32)Cc2ccccc2CNC)CCN(C(=O)C2CCCC2)CC1
5.75 nM

Identify measured IC50 corresponding to CNCc1ccccc1CN(CC(=O)Nc1ccc2c(c1)C[C@@]1(C2)C(=O)Nc2ncccc21)C(=O)C1(C)CCN(C(=O)N(C)C)CC1
14.1 nM

Identify measured IC50 corresponding to CCC1(C(=O)N(CC(=O)Nc2ccc3c(c2)C[C@@]2(C3)C(=O)Nc3ncccc32)Cc2ccccc2CNC)CCN(C(=O)N2CC(F)(F)C2)CC1
7940 nM

Identify measured IC50 corresponding to CCNCc1ccccc1CN(CC(=O)Nc1ccc2c(c1)C[C@@]1(C2)C(=O)Nc2ncccc21)C(=O)C1(CC)CCN(C(C)=O)CC1
115 nM

###

Biological target: AM2 receptor (1321N1 cells transfected with CALCRL+RAMP3) (Homo sapiens, UniProt O60896+Q16602)
Construct: host or cells: 1321N1 cells
Assay: AM2 receptor inhibition, LANCE cAMP agonist-antagonist competition assay
Type: cell-based
Conditions: inhibition of AM induced cAMP activation, read-out: AM2 D2 protocol: pIC50 (converted)
MEASUREMENT TYPE: IC50 (nM)
Return type: number; implicit unit nM.

Identify measured IC50 corresponding to CNCc1ccccc1CN(CC(=O)Nc1ccc2c(c1)CC1(C2)C(=O)Nc2ncccc21)C(=O)C1(C)CCN(C(=O)CCN(C)C)CC1 (stereo not drawn)
1.15

Identify measured IC50 corresponding to CNCc1ccccc1CN(CC(=O)Nc1ccc2c(c1)CC1(C2)C(=O)Nc2ncccc21)C(=O)C1(C)CCN(C(=O)CN)CC1 (stereo not drawn)
0.631

Identify measured IC50 corresponding to CCC1(C(=O)N(CC(=O)Nc2ccc3c(c2)C[C@@]2(C3)C(=O)Nc3ncccc32)Cc2ccccc2CNC)CCN(C(=O)CN2CCOCC2)CC1
22.9

Identify measured IC50 corresponding to CCC1(C(=O)N(CC(=O)Nc2ccc3c(c2)C[C@@]2(C3)C(=O)Nc3ncccc32)Cc2ccccc2CNC)CCN(C(C)=O)CC1
1.41

Identify measured IC50 corresponding to CNCc1ccccc1CN(CC(=O)Nc1ccc2c(c1)C[C@@]1(C2)C(=O)Nc2ncccc21)C(=O)C1(C)CCN(C(=O)c2cccc(N)n2)CC1
8.91

Identify measured IC50 corresponding to CCC1(C(=O)N(CC(=O)Nc2ccc3c(c2)C[C@@]2(C3)C(=O)Nc3ncccc32)Cc2ccccc2CNC)CCN(C(=O)C2CCC2)CC1
5.5

Identify measured IC50 corresponding to CCC1(C(=O)N(CC(=O)Nc2ccc3c(c2)C[C@@]2(C3)C(=O)Nc3ncccc32)Cc2ccccc2CNC(C)C)CCN(C(C)=O)CC1
102

Identify measured IC50 corresponding to CNCc1ccccc1CN(CC(=O)Nc1ccc2c(c1)C[C@@]1(C2)C(=O)Nc2ncccc21)C(=O)C1(C)CCN(C(=O)C(F)F)CC1
8.32

Identify measured IC50 corresponding to CNCc1ccccc1CN(CC(=O)Nc1cc2c(cc1C)CC1(C2)C(=O)Nc2ncccc21)C(=O)C1(C)CCN(C(C)=O)CC1 (stereo not drawn)
107

Identify measured IC50 corresponding to CNCc1ccccc1CN(CC(=O)Nc1ccc2c(c1)C[C@@]1(C2)C(=O)Nc2ncccc21)C(=O)C1(C)CCN(C(=O)c2cnccn2)CC1
4.47

Identify measured IC50 corresponding to CNCc1ccccc1CN(CC(=O)Nc1ccc2c(c1)C[C@@]1(C2)C(=O)Nc2ncccc21)C(=O)C1(C)CCN(C(=O)C(C)NC)CC1 (stereo partly drawn)
1.38

Identify measured IC50 corresponding to CNCc1ccccc1CN(CC(=O)Nc1ccc2c(c1)C[C@@]1(C2)C(=O)Nc2ncccc21)C(=O)C1(C)CCCN(C(C)=O)C1 (stereo partly drawn)
302

Identify measured IC50 corresponding to CNCc1ccccc1CN(CC(=O)Nc1ccc2c(c1)C[C@@]1(C2)C(=O)Nc2ncccc21)C(=O)C1(C)CCN(C(=O)c2ccc(C(=O)O)cc2)CC1
3.8

Identify measured IC50 corresponding to CCC1(C(=O)N(CC(=O)Nc2ccc3c(c2)C[C@@]2(C3)C(=O)Nc3ncccc32)Cc2ccccc2CNC)CCN(C(=O)[C@H](N)c2ccccc2)CC1
2.34

Identify measured IC50 corresponding to CNCc1ccccc1CN(CC(=O)Nc1ccc2c(c1)C[C@@]1(C2)C(=O)Nc2ncccc21)C(=O)C1(C)CCN(C(=O)N2CCCC2)CC1
3.63

Identify measured IC50 corresponding to CNCc1ccccc1CN(CC(=O)Nc1ccc2c(c1)C[C@@]1(C2)C(=O)Nc2ncccc21)C(=O)C1(C)CCN(C(=O)c2ccc(N)cn2)CC1
17.8

Identify measured IC50 corresponding to CNCc1ccccc1CN(CC(=O)Nc1ccc2c(c1)C[C@@]1(C2)C(=O)Nc2ncccc21)C(=O)C1(C)CCN(c2ncccn2)CC1
38

Identify measured IC50 corresponding to CNCc1ccccc1CN(CC(=O)Nc1ccc2c(c1)C[C@@]1(C2)C(=O)Nc2ncccc21)C(=O)C1(C)CCN(C(=O)C(C)C)CC1
3.24

Identify measured IC50 corresponding to CNCc1ccccc1CN(CC(=O)Nc1ccc2c(c1)CC1(C2)C(=O)Nc2ncccc21)C(=O)C1(C)CCN(C(=O)c2ccncc2)CC1 (stereo not drawn)
2.29

Identify measured IC50 corresponding to CNCc1ccccc1CN(CC(=O)Nc1ccc2c(c1)C[C@@]1(C2)C(=O)Nc2ncccc21)C(=O)C1(C)CCN(C(=O)c2cccc(C(=O)O)c2)CC1
15.1

Identify measured IC50 corresponding to CNCc1ccccc1CN(CC(=O)Nc1ccc2c(c1)C[C@@]1(C2)C(=O)Nc2ncccc21)C(=O)C1(CC(C)C)CCN(C(C)=O)CC1
21.4

Identify measured IC50 corresponding to CNCc1ccccc1CN(CC(=O)Nc1ccc2c(c1)C[C@@]1(C2)C(=O)Nc2ncccc21)C(=O)C1(C)CCCNC1 (stereo partly drawn)
229

Identify measured IC50 corresponding to CNCc1ccccc1CN(CC(=O)Nc1ccc2c(c1)CC1(C2)C(=O)Nc2ncccc21)C(=O)C1(C)CCNCC1 (stereo not drawn) [Example 2, bis(2,2,2-trifluoroacetate)]
3.39

Identify measured IC50 corresponding to CNCc1ccccc1CN(CC(=O)Nc1ccc2c(c1)C[C@@]1(C2)C(=O)Nc2ncccc21)C(=O)C1(C)CCN(c2ccccc2)CC1
14.5
